- protocol: Cytotoxicity measurement
- Format: cell-based
- condition_description: human, Huh7 cells
# CC50 at 48 h listing for each entry below

| compound | CC50 at 48 h |
| --- | --- |
| O[C@H]1[C@H]2c3cc4c(cc3CN3CCC(=C[C@@H]1O)[C@H]23)OCO4 | 4.4 µM |

# next compound below
// lookup CC50 at 48 h for Cc1c(-c2ccc(-c3ccccc3F)cc2)nc2ccc(F)cc2c1C(=O)O [Brequinar, reference compound] > 50 µM

====

- protocol: Cytotoxicity measurement
- Format: cell-based
- condition_description: human, A549 cells
outcome_measure: CC50 at 48 h (µM)
Just the number please, in µM, no unit attached.

// lookup CC50 at 48 h for `O[C@H]1[C@H]2c3cc4c(cc3CN3CCC(=C[C@@H]1O)[C@H]23)OCO4` 4.29
